# assay_comment: Octanol-PBS partition coefficient of the compound at pH 7.4 by gamma counter
# Format: physicochemical
# test_parameters: read-out: log KOW
reported_property: logD

A = COC(=O)CNC(=O)c1ccc(OCC[18F])cc1 [[18F]FEBA]
B = O=C(O)CNC(=O)c1ccc(OCC[18F])cc1 [[18F]FEBA hydrolytic acid]
Ask: Hi team, can someone confirm which has the larger logD: A or B ? Thanks. Refer to your chosen entry by its label in the reply.
Result: A
(A: 0.57, B: -1.55)
